Source: patent US20050245399A1

- System: rice (Oryza sativa L.), ORYSA
- Test name: Test Example 2 post-emergence (foliage treatment) herbicidal activity, ORYSA
- Type: in vivo
- Measurement setup: 63 g a.i./ha
Criterion: growth controlling degree, ORYSA strictly under 40%. Met: fulfilled. Not met: not fulfilled.

{"columns": ["Compound", "Cat"],
 "data": [
  ["COc1c(Cl)cc(F)c(-c2nn(C)c(OC(F)F)c2Cl)c1N(C=O)C(C)C [Compound 1-8]", "not fulfilled"],
  ["CCOC(=O)C(C)N(C=O)c1c(OC)c(Cl)cc(F)c1-c1nn(C)c(OC(F)F)c1Cl (stereo not shown) [Compound 1-42]", "fulfilled"],
  ["COc1c(Cl)cc(F)c(-c2nn(C)c(OC(F)F)c2Cl)c1NC(=O)COc1ccc(C#N)cc1 [Compound 1-36]", "fulfilled"],
  ["C#CCNc1c(OC(F)F)c(Cl)cc(F)c1-c1nn(C)c(OC(F)F)c1Cl [Compound 1-87]", "not fulfilled"],
  ["COc1c(Cl)cc(F)c(-c2nn(C)c(OC(F)F)c2Cl)c1NC(=O)OCCCl [Compound 1-68]", "not fulfilled"],
  ["COc1ccc(OC(=O)N(C(=O)Oc2ccc(OC)cc2)c2c(OC)c(Cl)cc(F)c2-c2nn(C)c(OC(F)F)c2Cl)cc1 [Compound 1-65]", "fulfilled"],
  ["COc1c(Cl)cc(F)c(-c2nn(C)c(OC(F)F)c2Cl)c1NC(=O)CCC1CCCCC1 [Compound 1-259]", "fulfilled"],
  ["COc1c(Cl)cc(F)c(-c2nn(C)c(OC(F)F)c2Cl)c1NC(=O)C=Cc1ccccc1C [Compound 1-253]", "not fulfilled"],
  ["Cn1nc(-c2c(F)cc(Cl)c(OC(F)F)c2NS(C)(=O)=O)c(Cl)c1OC(F)F [Compound 1-84]", "fulfilled"],
  ["COc1c(Cl)cc(F)c(-c2nn(C)c(OC(F)F)c2Cl)c1NC(=O)c1ccccc1F [Compound 1-22]", "not fulfilled"],
  ["Cn1nc(-c2c(F)cc(Cl)c(OC(F)F)c2NC=O)c(Cl)c1OC(F)F [Compound 1-82]", "not fulfilled"],
  ["COc1c(Cl)cc(F)c(-c2nn(C)c(OC(F)F)c2Cl)c1NC(=O)OCC(C)C [Compound 1-64]", "fulfilled"],
  ["COc1c(Cl)cc(F)c(-c2nn(C)c(OC(F)F)c2Cl)c1NC(=O)c1ccc(F)cc1 [Compound 1-263]", "not fulfilled"],
  ["COc1c(Cl)cc(F)c(-c2nn(C)c(OC(F)F)c2Cl)c1NC(=O)C=Cc1cccc(C)c1 [Compound 1-254]", "not fulfilled"]
]}

----------
- System: prickly sida (Sida spinosa L.), SIDSP
- Test name: Test Example 2 post-emergence (foliage treatment) herbicidal activity, SIDSP
- Type: in vivo
- Measurement setup: 63 g a.i./ha
Reported growth controlling degree, SIDSP values for a set of molecules

{"columns": ["Entry smiles", "growth controlling degree, SIDSP, %"],
 "data": [
  ["COc1c(Cl)cc(F)c(-c2nn(C)c(OC(F)F)c2Cl)c1NC(=O)c1ccc(C#N)cc1", 100],
  ["COCCC(=O)Nc1c(OC)c(Cl)cc(F)c1-c1nn(C)c(OC(F)F)c1Cl", 100],
  ["COc1ccc(OC(=O)N(C(=O)Oc2ccc(OC)cc2)c2c(OC)c(Cl)cc(F)c2-c2nn(C)c(OC(F)F)c2Cl)cc1", 0],
  ["COc1c(Cl)cc(F)c(-c2nn(C)c(OC(F)F)c2Cl)c1NC(C)C", 100]
]}
